B1: SMAD6 (parent)
chain: SGLVRRLWRSRVVPDREEGGSGGG

# Variants of: B1
# assay procedure: protein stability index of a GFP-peptide fusion (GPS, HEK-293T) (PSI 1-6); higher = more stable;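 further: lentivirally expressed fusions sorted by FACS into six bins by GFP to DsRed ratio, PSI derived from sequencing read proportions per bin multiplied by bin number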
# condition context: c terminus: a fixed tail appended

- mutant label: "L7Q"
  protein stability index: 4.4
- mutant label: "W8N"
  protein stability index: 5.26
- mutant label: "V13L"
  protein stability index: 3.99
- mutant label: "S1C"
  protein stability index: 2.09
- mutant label: "R5H"
  protein stability index: 4.21
- mutant label: "G2A"
  protein stability index: 2.15
- mutant label: "G24E"
  protein stability index: 4
- mutant label: "S10A"
  protein stability index: 3.76
- mutant label: "D15N"
  protein stability index: 3.96
- mutant label: "G19K"
  protein stability index: 4.06
- mutant label: "D15E"
  protein stability index: 4.31
- mutant label: "R16I"
  protein stability index: 3.76
- mutant label: "G20I"
  protein stability index: 3.06
- mutant label: "D15K"
  protein stability index: 3.35
- mutant label: "D15H"
  protein stability index: 3.55
- mutant label: "G20N"
  protein stability index: 3.11
- mutant label: "E18P"
  protein stability index: 3.46
- mutant label: "G23D"
  protein stability index: 5.01
- mutant label: "S1W"
  protein stability index: 2.61
- mutant label: "E17G"
  protein stability index: 3.86
- mutant label: "G20C"
  protein stability index: 3.04
- mutant label: "G2W"
  protein stability index: 2.29
- mutant label: "G20A"
  protein stability index: 4
- mutant label: "G22F"
  protein stability index: 2.98
- mutant label: "G24F"
  protein stability index: 2.44
- mutant label: "V12C"
  protein stability index: 2.94
- mutant label: "R16N"
  protein stability index: 4.37
- mutant label: "S1H"
  protein stability index: 3.81
- mutant label: "V12M"
  protein stability index: 4.06
- mutant label: "R9H"
  protein stability index: 3.69
- mutant label: "G19W"
  protein stability index: 2.79
- mutant label: "R9N"
  protein stability index: 3.96
- mutant label: "R9P"
  protein stability index: 4.85
- mutant label: "E18A"
  protein stability index: 2.9
- mutant label: "R11I"
  protein stability index: 2.63
- mutant label: "E17T"
  protein stability index: 3.31
- mutant label: "S10F"
  protein stability index: 2.4
- mutant label: "S1I"
  protein stability index: 2.92
- mutant label: "G20V"
  protein stability index: 2.44
- mutant label: "L7E"
  protein stability index: 3.82
- mutant label: "G20F"
  protein stability index: 2.82
- mutant label: "P14D"
  protein stability index: 2.83
- mutant label: "G2D"
  protein stability index: 2.93
- mutant label: "R16E"
  protein stability index: 4.32
- mutant label: "W8S"
  protein stability index: 5.1
- mutant label: "G2H"
  protein stability index: 4.14
